species on record: Rattus norvegicus; assay: Ester prodrugs: recovery of parent compound in rat urine; type: ADME, organism-based; details: in vivo
Entries whose Urinary recovery is below 8% take Satisfied; entries at or above 8% take Not satisfied.

// known answers, use as guide
record.smiles	group.label
COc1ccc(C(=O)OC[C@H]2O[C@@H](n3cnc4c(OC)ncnc43)[C@@H](OC(=O)c3ccc(OC)cc3)[C@@H]2O)cc1	Satisfied
CCCCCCCC(=O)O[C@H]1[C@H](OC(=O)CCCCCCC)[C@@H](CO)O[C@H]1n1cnc2c(OC)ncnc21	Not satisfied
COc1ncnc2c1ncn2[C@@H]1O[C@H](COC(C)=O)[C@@H](O)[C@@H]1OC(C)=O	Not satisfied

Consider the compound COc1ncnc2c1ncn2[C@@H]1O[C@H](COS(C)(=O)=O)[C@@H](OS(C)(=O)=O)[C@@H]1OS(C)(=O)=O . Is its Urinary recovery strictly less than 8%? Satisfied

Same again, this time with CCCCCCC(=O)O[C@H]1[C@H](OC(=O)CCCCCC)[C@@H](CO)O[C@H]1n1cnc2c(OC)ncnc21 Not satisfied

Same again, this time with COc1ncnc2c1ncn2[C@@H]1O[C@H](COC(=O)C(C)(C)C)[C@@H](O)[C@@H]1OC(=O)C(C)(C)C Not satisfied

Same again, this time with COc1ncnc2c1ncn2[C@@H]1O[C@H](COC(=O)C(C)(C)C)[C@@H](OC(=O)C(C)(C)C)[C@@H]1O Satisfied

Same again, this time with COc1ncnc2c1ncn2[C@@H]1O[C@H](CO)[C@@H](OC(=O)COc2ccccc2)[C@@H]1OC(=O)COc1ccccc1 Satisfied

* * *

experiment: Solubility (phosphate buffered saline); type: physicochemical; conditions: read-out: S
measurement.label: log10 of solubility (log10 of the value in µM)
Kindly note that the scale is log10 and the underlying solubility is in µM.

// known answers, use as guide
compound	log10 of solubility
CCC(=O)O[C@H]1[C@H](OC(=O)CC)[C@@H](CO)O[C@H]1n1cnc2c(OC)ncnc21	4.37
COc1ccc(C(=O)OC[C@H]2O[C@@H](n3cnc4c(OC)ncnc43)[C@@H](O)C2OC(=O)c2ccc(OC)cc2)cc1 (single isomer, unassigned)	1.65
COc1ccc(C(=O)OC[C@H]2O[C@@H](n3cnc4c(OC)ncnc43)[C@@H](OC(=O)c3ccc(OC)cc3)[C@@H]2O)cc1	0.78
COc1ncnc2c1ncn2[C@@H]1O[C@H](COC(C)=O)[C@@H](OC(C)=O)[C@@H]1OC(C)=O	4.91
CCCC(=O)OC[C@H]1O[C@@H](n2cnc3c(OC)ncnc32)[C@@H](OC(=O)CCC)[C@@H]1OC(=O)CCC	2.01

Field: next compound
Looking for the measured log10 of solubility of COc1ncnc2c1ncn2[C@@H]1O[C@H](COC(=O)COc2ccccc2)[C@@H](OC(=O)COc2ccccc2)[C@@H]1OC(=O)COc1ccccc1 , can you help? 1.34

* * *

assay: Ester prodrugs: stability in buffer (pH 7); format: physicochemical
Reported T1/2 values for the following compounds.
Reply with just the number (in days).

// known answers, use as guide
record.smiles	T1/2 / days
COc1ncnc2c1ncn2[C@@H]1O[C@H](CO)[C@@H](OC(C)=O)[C@@H]1OC(C)=O	19.1
CCCCC(=O)O[C@H]1[C@H](OC(=O)CCCC)[C@@H](CO)O[C@H]1n1cnc2c(OC)ncnc21	7.02
COc1ncnc2c1ncn2[C@@H]1O[C@H](CO)[C@@H](OC(=O)C(C)C)[C@@H]1OC(=O)C(C)C	28.9
COc1ncnc2c1ncn2[C@@H]1O[C@H](COC(=O)C(C)C)[C@@H](O)[C@@H]1OC(=O)C(C)C	53.6
CCC(=O)OC[C@H]1O[C@@H](n2cnc3c(OC)ncnc32)[C@@H](O)[C@@H]1OC(=O)CC	30.2

Looking for the measured T1/2 of COc1ncnc2c1ncn2[C@@H]1O[C@H](COC(=O)C(C)C)[C@@H](OC(=O)C(C)C)[C@@H]1O , can you help? 19.5

Same again, this time with COc1ncnc2c1ncn2[C@@H]1O[C@H](CO)[C@@H](OC(=O)C(C)(C)C)[C@@H]1OC(=O)C(C)(C)C 72.7

Same again, this time with COc1ncnc2c1ncn2[C@@H]1O[C@H](COC(C)=O)[C@@H](O)[C@@H]1OC(C)=O 22.5
